# System: Enterococcus faecalis 19433
# test protocol: microbe, parasite or virus in culture
# Format: cell-based
# test context: 37° C., 24 h, read-out: Minimum Inhibitory Concentration, MIC
assay metric: MIC

[[record]]
molecule = "CCc1nn2c(=O)c(C)c(-c3ccc(C(F)(F)F)cc3)[nH]c2c1-c1ccc(Cl)cc1Cl [Compound 23]"
observed_result = "140 µM"

[[record]]
molecule = "Cc1c(-c2ccc(C(F)(F)F)cc2)[nH]c2c(-c3ccc(Cl)cc3Cl)c(C3CC3)nn2c1=O [Compound 21]"
observed_result = "12.3 µM"

[[record]]
molecule = "Cc1nn2c(=O)cc(-c3ccc(C(F)(F)F)cc3)[nH]c2c1-c1ccc(Cl)cc1Cl [Compound 7]"
observed_result = "0.61 µM"

[[record]]
molecule = "Nc1nc(-c2ccccc2)nc2c1cnn2-c1ccccc1 [Compound 38]"
observed_result = "108 µM"

